# Test system: HCC 2998
# Assay: NCI tumour cell line growth inhibition, 48 h
The source made the active and inactive calls. Cut-off read from the data, not from the text of the source: active = GI50 up to about 1.1 µM and inactive = higher. Positions of bridges follow the written chain, without caps; N, C: chain ends. Non-standard residues stand in square brackets, D forms with d. Residues, ends and D or L forms follow the SMILES beside them. *: point of attachment. Cbz = O=C(OCc1ccccc1)*; Aib = CC(C)(N)C(=O)O; OBn = c1ccc(CO*)cc1; βAla = NCCC(=O)O
Measured parameter: GI50

Compound: O=C(/C=C/CC(O)(c1ccccc1)c1ccccc1)Nc1ccccc1Cl
Measured parameter: GI50
Test result: > 100 µM (inactive)
//
Compound: CC1(C)NC(=O)C(NC(=O)C(CC(=O)OCc2ccccc2)NC(=O)OCc2ccccc2)CCCCNC(=O)CCNC1=O (centres undefined) (Cbz-D(OBn)K[Aib][βAla]; lactam 2-C; configuration not given here)
Measured parameter: GI50
Test result: > 100 µM (inactive)
//
Compound: Cc1cc(NC[C@H](O)[C@H](O)[C@H](O)CO)c(Sc2cc(=O)[nH]c(=O)[nH]2)cc1C
Measured parameter: GI50
Test result: > 62.5 µM (inactive)
//
Compound: NNC(=O)COc1nc(-c2cccs2)nc2ccc(I)cc12
Measured parameter: GI50
Test result: 20 µM (inactive)
//
Compound: Cc1cc(=O)nc(S(=O)(=O)NC(=S)Nc2ccc(Br)cc2)[nH]1
Measured parameter: GI50
Test result: > 100 µM (inactive)
//
Compound: N/C(=N\O)N/N=C\c1c2ccccc2c(Cl)c2ccccc12
Measured parameter: GI50
Test result: 3.66 µM (inactive)
//
Compound: COc1ccc(NC(=O)/C(O)=C/C(=O)c2ccccc2)cc1
Measured parameter: GI50
Test result: > 10 µM (inactive)
//
Compound: COc1ccc2c(c1[N+](=O)[O-])CC[C@@H]1[C@@H]2CC[C@]2(C)C(=O)CC[C@@H]12
Measured parameter: GI50
Test result: > 1000 µM (inactive)
//
Compound: O=c1[nH]c2nc3ccccc3c(=O)n2/c1=C/c1ccco1
Measured parameter: GI50
Test result: > 100 µM (inactive)
//
Compound: CN(C)CC1CCC/C1=N\O (centres undefined)
Measured parameter: GI50
Test result: > 100 µM (inactive)
//
Compound: Cc1sc2ncnc(NCCc3ccccc3)c2c1C
Measured parameter: GI50
Test result: 15.1 µM (inactive)
//
Compound: COCCOC(C)C(=O)C(O)S(=O)(=O)O (centres undefined)
Measured parameter: GI50
Test result: > 100 µM (inactive)
//
Compound: CC(O)c1ccc(C(O)/C(=N\NC(=O)c2ccncc2)c2nc3ccc([N+](=O)[O-])cc3nc2O)cc1 (centres undefined)
Measured parameter: GI50
Test result: 75.2 µM (inactive)
//
Compound: NC1=NCC(CN2CCCC2)O1 (centres undefined)
Measured parameter: GI50
Test result: > 100 µM (inactive)

* * *

GI50 values for the molecules below.
# System: A498
# Assay: NCI tumour cell line growth inhibition, 48 h
Calls of active or inactive are those of the source. Rule as the data show it: active = GI50 up to about 1.1 µM and inactive = higher.
Measured parameter: GI50

Molecule: CN(C)/N=C/c1cn(C)c(=O)n(C)c1=O
Measured parameter: GI50
Test result: > 100 µM (inactive)

Molecule: O=C(/C=C/c1csc(-c2ccccc2)n1)NCc1ccc(C(=O)NCCc2ccccc2)cc1
Measured parameter: GI50
Test result: 19.8 µM (inactive)

Molecule: CC(C)(CCCCC(C)(C)NC1=NCCO1)NC1=NCCO1
Measured parameter: GI50
Test result: > 10 µM (inactive)

Molecule: O=[N+]([O-])c1ccc(C(Nc2ccccc2)c2ccc3cccnc3c2O)cc1 (stereo not given)
Measured parameter: GI50
Test result: 24.1 µM (inactive)

Molecule: Cc1[nH]c(=O)nc(N/N=C/c2ccc(O)cc2)c1C(=O)Nc1ccc(O)cc1
Measured parameter: GI50
Test result: > 100 µM (inactive)

Molecule: Oc1c(Cl)ccc2cccnc12
Measured parameter: GI50
Test result: 4.81 µM (inactive)

Molecule: CC1CCCc2c(CC3CC(=O)NC(=O)C3)nc(N)nc21 (stereo not given)
Measured parameter: GI50
Test result: > 100 µM (inactive)

Molecule: c1ccc(CNCCN2CCNCC2)nc1
Measured parameter: GI50
Test result: > 100 µM (inactive)

Molecule: CC12CC3C(CC1SCC(=O)O2)C3(C)C (stereo not given)
Measured parameter: GI50
Test result: 16.6 µM (inactive)

Molecule: O=C(N/C(=C\c1cccc([N+](=O)[O-])c1)c1nc2ccccc2[nH]1)c1ccccc1
Measured parameter: GI50
Test result: 35.8 µM (inactive)

Molecule: O=C1C2CCCC2N1Cc1ccccc1 (stereo not given)
Measured parameter: GI50
Test result: > 100 µM (inactive)

Molecule: C[Si](C)(C)/C=C\CCO
Measured parameter: GI50
Test result: > 100 µM (inactive)

Molecule: O=Cc1cc2c(s1)C(=O)c1sccc1C2=O
Measured parameter: GI50
Test result: 1.37 µM (inactive)

Molecule: CCOc1nnnc2[nH]cnc12
Measured parameter: GI50
Test result: > 100 µM (inactive)

Molecule: COc1cc(/C=N/N=C2NCCCN2)ccc1O
Measured parameter: GI50
Test result: > 100 µM (inactive)

Molecule: CCOc1ccc(C2=NN(CC)C(=O)C(C3C(=O)N(c4ccccc4)N=C3C)C2)cc1 (stereo not given)
Measured parameter: GI50
Test result: > 100 µM (inactive)

Molecule: COc1cccc2c1CCc1cc3c(N)nc(N)nc3nc1-2
Measured parameter: GI50
Test result: 9.27 µM (inactive)

Molecule: CCOc1cc(NC(C)=O)ccc1C(=O)NN1C(=O)/C(=C/c2ccc(Cl)cc2)N=C1c1ccccc1
Measured parameter: GI50
Test result: 24.9 µM (inactive)

Molecule: C=CCN1C(=O)/C(=C\c2cc(C(C)(C)C)c(O)c(C(C)(C)C)c2)NC1=S
Measured parameter: GI50
Test result: 25.2 µM (inactive)

Molecule: O=c1sc2c(s1)-c1sc(=O)sc1SS2
Measured parameter: GI50
Test result: > 42.9 µM (inactive)

Molecule: CCOc1ccccc1NC(=O)C(=O)CC(=O)c1sc(Nc2nnc(-c3ccc(Cl)c(Cl)c3)o2)nc1C
Measured parameter: GI50
Test result: > 100 µM (inactive)

Molecule: O=C1c2ccccc2C2(O)c3cc4ccccc4cc3OC12O (stereo not given)
Measured parameter: GI50
Test result: > 100 µM (inactive)

Molecule: CC(=O)OC12c3ccccc3C1CCCCCC21OCCCO1 (stereo not given)
Measured parameter: GI50
Test result: > 100 µM (inactive)

Molecule: CCOP(=O)(OCC)C(Nc1ccc(F)cc1)c1ccccc1 (stereo not given)
Measured parameter: GI50
Test result: > 100 µM (inactive)

Molecule: Brc1ccc2[nH]cc(-c3csc(-c4ccccn4)n3)c2c1
Measured parameter: GI50
Test result: 3.39 µM (inactive)
